Hello, the source for this data is the SangsterLogP compilation, in case you need it.

Parameter logP: see the listing below.
measurementType: logP

NC12CCC(CO)CC1Cc1ccccc12 (stereo not given) | 0.93
CCNC12c3ccccc3CC1CCCC2C (stereo not given) | 3.8
CNC12CC=CCC1c1ccccc1C2 (stereo not given) | 3.28
CNCC1CCC2(NC)c3ccccc3CC2C1 (stereo not given) | 2.48
CNC12CCCCCC1Cc1ccccc12 (stereo not given) | 3.77
CNC12CCCCC1Cc1ccccc12 (stereo not given) | 3.37
CNC12CCCCC1Cc1ccc(OC)cc12 (stereo not given) | 3.54
CNC12c3ccccc3CC1CCCC2C (stereo not given) | 3.44
NC12CCCC1Cc1ccccc12 (stereo not given) | 2.58
CNC12CCC(CO)CC1Cc1ccccc12 (stereo not given) | 1.41
C=C1c2ccccc2C2(NC)CCCCC12 (stereo not given) | 3.79
CNC12CCCCC1Cc1cc(OC)ccc12 (stereo not given) | 3.51
CNC12CCCCC1c1ccccc1C2 (stereo not given) | 3.43
NC12CCCCC1c1ccccc1C2 (stereo not given) | 2.94
CNC12CCC(CN)CC1Cc1ccccc12 (stereo not given) | 1.84
